# method-summary: Aqueous solubility of L-thyroxine sodium salt in the presence of cyclodextrins
# Assay type: physicochemical
# condition-description: water with randomly-methylated-β-cyclodextrin, randomly-methylated-β-cyclodextrin 5.0%
Where a name gives a salt, the structure may show the parent alone.
reported-property: solubility (µg/mL)
API: value field is a number in µg/mL; no unit string.

So what's the measured solubility for this one? N[C@@H](Cc1cc(I)c(Oc2cc(I)c(O)c(I)c2)c(I)c1)C(=O)O [L-thyroxine sodium salt, Levothyroxine sodium]
8360

###

# method-summary: Aqueous solubility of L-thyroxine sodium salt in the presence of cyclodextrins
# Assay type: physicochemical
# condition-description: water, 15.0% maltosyl-β-cyclodextrin, Maltosyl-β-cyclodextrin 15.0%
Counter-ions that a name gives are not always drawn.
reported-property: solubility (µg/mL)
Value expressed in µg/mL; do not type the unit.

Query: solubility; subject: N[C@@H](Cc1cc(I)c(Oc2cc(I)c(O)c(I)c2)c(I)c1)C(=O)O [L-thyroxine sodium salt, Levothyroxine sodium]
2680

###

# method-summary: Aqueous solubility of L-thyroxine sodium salt in the presence of cyclodextrins
# Format: physicochemical
# condition-description: water, 3.0% maltosyl-β-cyclodextrin; Maltosyl-β-cyclodextrin 3.0%
# From the text: Interaction between L-thyroxine sodium and cyclodextrins in presence of water. One evidence of the interaction between L-thyroxine and cyclodextrins is that the cyclodextrins increase the aqueous solubility of the thyroxine as shown in Table 1. Solubility of L-thyroxine sodium salt in the presence of CDs (mg/ml)
Where a name gives a salt, the structure may show the parent alone.
reported-property: solubility
Don't forget the unit after the number, please.

# solubility lookup, item N[C@@H](Cc1cc(I)c(Oc2cc(I)c(O)c(I)c2)c(I)c1)C(=O)O [L-thyroxine sodium salt, Levothyroxine sodium]
2480 µg/mL

###

# method-summary: Aqueous solubility of L-thyroxine sodium salt in the presence of cyclodextrins
# Type: physicochemical
# condition-description: water, 5.0% dimethyl-β-cyclodextrin, heptakis-2,6-di-O-methyl-β-cyclodextrin 5.0%
Structures can show the parent of a compound that is named as a salt.
reported-property: solubility (µg/mL)
Answer format: numeric, µg/mL implied, no suffix.

GET /values?readout=solubility&item= N[C@@H](Cc1cc(I)c(Oc2cc(I)c(O)c(I)c2)c(I)c1)C(=O)O [L-thyroxine sodium salt, Levothyroxine sodium]
7000

###

# method-summary: Aqueous solubility of L-thyroxine free acid in the presence of γ-cyclodextrin
# Format: physicochemical
# condition-description: water with γ-cyclodextrin, γ-cyclodextrin 10 g/100 ml, 25° C., 2-nd run; read-out: solubility of thyroxine free acid
reported-property: solubility
Answer with the figure and its unit, nothing else.

Form field: reported solubility of N[C@@H](Cc1cc(I)c(Oc2cc(I)c(O)c(I)c2)c(I)c1)C(=O)O [L-thyroxine free acid]
652 µg/mL

###

# method-summary: Aqueous solubility of L-thyroxine free acid in the presence of γ-cyclodextrin
# Assay type: physicochemical
# condition-description: water, γ-cyclodextrin 0 g/100 ml, 25° C., 2-nd run; read-out: solubility of thyroxine free acid
reported-property: solubility (µg/mL)
Quick note: give the figure in µg/mL, leave out the unit.

Item under review: N[C@@H](Cc1cc(I)c(Oc2cc(I)c(O)c(I)c2)c(I)c1)C(=O)O [L-thyroxine free acid] . Reported solubility?
150

###

# method-summary: Aqueous solubility of L-thyroxine sodium salt in the presence of cyclodextrins
# Type: physicochemical
# condition-description: water, γ-cyclodextrin column, 0% (no CDs)
# From the text: Interaction between L-thyroxine sodium and cyclodextrins in presence of water. One evidence of the interaction between L-thyroxine and cyclodextrins is that the cyclodextrins increase the aqueous solubility of the thyroxine as shown in Table 1. Solubility of L-thyroxine sodium salt in the presence of CDs (mg/ml)
Structures can show the parent of a compound that is named as a salt.
reported-property: solubility (µg/mL)
Unit µg/mL implied. Number only.

If you can, please state the reported solubility value of N[C@@H](Cc1cc(I)c(Oc2cc(I)c(O)c(I)c2)c(I)c1)C(=O)O [L-thyroxine sodium salt, Levothyroxine sodium] .
2000

###

# method-summary: Aqueous solubility of L-thyroxine free acid in the presence of γ-cyclodextrin
# Format: physicochemical
# condition-description: water with γ-cyclodextrin, γ-cyclodextrin 5 g/100 ml, 25° C., 2-nd run; read-out: solubility of thyroxine free acid
reported-property: solubility (mg/mL)
Numbers only here, please. The scale is mg/mL.

solubility lookup needed for N[C@@H](Cc1cc(I)c(Oc2cc(I)c(O)c(I)c2)c(I)c1)C(=O)O [L-thyroxine free acid] , thanks.
0.379

###

# method-summary: Aqueous solubility of L-thyroxine sodium salt in the presence of cyclodextrins
# Format: physicochemical
# condition-description: water, heptakis-2,6-di-O-methyl-β-cyclodextrin column, 0% (no CDs)
Where a name gives a salt, the structure may show the parent alone.
reported-property: solubility (µg/mL)
Write down the numeric answer in µg/mL and omit the unit.

Endpoint output: solubility of N[C@@H](Cc1cc(I)c(Oc2cc(I)c(O)c(I)c2)c(I)c1)C(=O)O [L-thyroxine sodium salt, Levothyroxine sodium] . Value?
2000

###

# method-summary: Aqueous solubility of L-thyroxine sodium salt in the presence of cyclodextrins
# Format: physicochemical
# condition-description: water with 2-hydroxypropylated-β-cyclodextrin, 2-hydroxypropylated-β-cyclodextrin 12.0%
Where a name gives a salt, the structure may show the parent alone.
reported-property: solubility (µg/mL)
The reply should contain only the number, in µg/mL.

Need solubility of N[C@@H](Cc1cc(I)c(Oc2cc(I)c(O)c(I)c2)c(I)c1)C(=O)O [L-thyroxine sodium salt, Levothyroxine sodium] , thanks.
3050

###

# method-summary: Aqueous solubility of L-thyroxine sodium salt in the presence of cyclodextrins
# Assay type: physicochemical
# condition-description: water with randomly-methylated-β-cyclodextrin; randomly-methylated-β-cyclodextrin 3.0%
# Source text: Interaction between L-thyroxine sodium and cyclodextrins in presence of water. One evidence of the interaction between L-thyroxine and cyclodextrins is that the cyclodextrins increase the aqueous solubility of the thyroxine as shown in Table 1. Solubility of L-thyroxine sodium salt in the presence of CDs (mg/ml)
Counter-ions that a name gives are not always drawn.
reported-property: solubility (µg/mL)
The reply should contain only the number, in µg/mL.

Look up solubility for this molecule: N[C@@H](Cc1cc(I)c(Oc2cc(I)c(O)c(I)c2)c(I)c1)C(=O)O [L-thyroxine sodium salt, Levothyroxine sodium]
6150

###

# method-summary: Aqueous solubility of L-thyroxine free acid in the presence of γ-cyclodextrin
# Assay type: physicochemical
# condition-description: water with γ-cyclodextrin, γ-cyclodextrin 10 g/100 ml, 25° C., 1-st run; read-out: solubility of thyroxine free acid
reported-property: solubility (µg/mL)
Your answer should be a plain number; it is taken to be in µg/mL.

Which solubility is reported for this molecule? N[C@@H](Cc1cc(I)c(Oc2cc(I)c(O)c(I)c2)c(I)c1)C(=O)O [L-thyroxine free acid]
646

###

# method-summary: Aqueous solubility of L-thyroxine sodium salt in the presence of cyclodextrins
# Format: physicochemical
# condition-description: water with γ-cyclodextrin, γ-cyclodextrin 12.0%
Counter-ions that a name gives are not always drawn.
reported-property: solubility (mg/mL)
Quick note: give the figure in mg/mL, leave out the unit.

Item N[C@@H](Cc1cc(I)c(Oc2cc(I)c(O)c(I)c2)c(I)c1)C(=O)O [L-thyroxine sodium salt, Levothyroxine sodium] has what recorded solubility?
35.1

###

# method-summary: Aqueous solubility of L-thyroxine sodium salt in the presence of cyclodextrins
# Format: physicochemical
# condition-description: water, 7.0% dimethyl-β-cyclodextrin, heptakis-2,6-di-O-methyl-β-cyclodextrin 7.0%
Where a name gives a salt, the structure may show the parent alone.
reported-property: solubility (µg/mL)
Expressed in µg/mL, but write only the number.

Item under review: N[C@@H](Cc1cc(I)c(Oc2cc(I)c(O)c(I)c2)c(I)c1)C(=O)O [L-thyroxine sodium salt, Levothyroxine sodium] . Reported solubility?
7620

###

# method-summary: Aqueous solubility of L-thyroxine sodium salt in the presence of cyclodextrins
# Type: physicochemical
# condition-description: water with 2-hydroxypropylated-β-cyclodextrin, 2-hydroxypropylated-β-cyclodextrin 10.0%
Structures can show the parent of a compound that is named as a salt.
reported-property: solubility (µg/mL)
Expressed in µg/mL, but write only the number.

Item N[C@@H](Cc1cc(I)c(Oc2cc(I)c(O)c(I)c2)c(I)c1)C(=O)O [L-thyroxine sodium salt, Levothyroxine sodium] has what recorded solubility?
2770

###

# method-summary: Aqueous solubility of L-thyroxine free acid in the presence of γ-cyclodextrin
# Format: physicochemical
# condition-description: water with γ-cyclodextrin, γ-cyclodextrin 12 g/100 ml, 25° C., 2-nd run; read-out: solubility of thyroxine free acid
# Experimental: This poor solubility can be affected positively by employing γ-cyclodextrin. The effect of γ-cyclodextrin as to the aqueous solubility of thyroxine acid is shown by the results in the table below: Aqueous solubility of thyroxine free acid in the presence of γ-cyclodextrin at 25° C. studied on two
reported-property: solubility (µg/mL)
Give just the number in µg/mL; leave the unit off.

Item N[C@@H](Cc1cc(I)c(Oc2cc(I)c(O)c(I)c2)c(I)c1)C(=O)O [L-thyroxine free acid] has what recorded solubility?
800
